Ref: patent US20110239316A1

molecular target: human c-Met receptor (human, UniProt P08581 25-1390); test: cell-based or functional assay
Sequence (P08581 25-1390): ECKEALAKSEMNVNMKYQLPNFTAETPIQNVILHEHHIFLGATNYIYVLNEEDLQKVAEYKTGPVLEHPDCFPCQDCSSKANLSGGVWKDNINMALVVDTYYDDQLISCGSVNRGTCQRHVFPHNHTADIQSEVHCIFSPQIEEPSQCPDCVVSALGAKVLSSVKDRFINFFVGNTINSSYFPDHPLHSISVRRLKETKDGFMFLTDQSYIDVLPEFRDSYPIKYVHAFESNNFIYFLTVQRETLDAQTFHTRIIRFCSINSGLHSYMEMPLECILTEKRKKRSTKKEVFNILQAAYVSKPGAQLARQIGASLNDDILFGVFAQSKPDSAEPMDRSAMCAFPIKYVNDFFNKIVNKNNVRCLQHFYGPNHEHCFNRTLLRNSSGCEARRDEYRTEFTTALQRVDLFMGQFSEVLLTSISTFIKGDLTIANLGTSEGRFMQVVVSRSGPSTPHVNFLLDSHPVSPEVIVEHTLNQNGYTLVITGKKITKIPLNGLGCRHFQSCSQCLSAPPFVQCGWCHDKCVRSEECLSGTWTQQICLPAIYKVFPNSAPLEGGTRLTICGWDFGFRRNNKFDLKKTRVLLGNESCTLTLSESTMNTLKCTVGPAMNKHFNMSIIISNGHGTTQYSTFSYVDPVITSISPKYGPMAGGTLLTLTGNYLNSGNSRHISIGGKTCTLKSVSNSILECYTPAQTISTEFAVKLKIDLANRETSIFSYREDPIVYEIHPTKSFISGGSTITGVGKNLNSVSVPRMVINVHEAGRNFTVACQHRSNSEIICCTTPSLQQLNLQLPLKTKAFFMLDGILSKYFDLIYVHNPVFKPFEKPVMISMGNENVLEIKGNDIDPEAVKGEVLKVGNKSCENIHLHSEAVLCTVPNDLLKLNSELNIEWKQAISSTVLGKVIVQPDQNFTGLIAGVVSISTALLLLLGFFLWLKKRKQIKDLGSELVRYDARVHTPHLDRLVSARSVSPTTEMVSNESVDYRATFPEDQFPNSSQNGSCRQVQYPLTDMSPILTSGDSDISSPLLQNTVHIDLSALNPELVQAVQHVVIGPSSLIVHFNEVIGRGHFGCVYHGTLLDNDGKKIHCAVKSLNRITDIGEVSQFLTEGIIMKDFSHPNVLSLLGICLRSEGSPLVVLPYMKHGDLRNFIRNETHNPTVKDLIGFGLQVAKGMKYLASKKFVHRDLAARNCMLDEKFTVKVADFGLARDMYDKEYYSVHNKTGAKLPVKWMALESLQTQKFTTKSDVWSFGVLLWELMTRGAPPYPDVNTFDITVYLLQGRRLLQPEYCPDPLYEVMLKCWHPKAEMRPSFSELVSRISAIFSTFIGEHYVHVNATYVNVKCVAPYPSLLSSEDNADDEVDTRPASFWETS
Each item that follows carries a reported inhibition of HGF-induced proliferation of NCI-H441 cells ([3H]thymidine), FIG. 14A.
attribute measured: inhibition of HGF-induced proliferation of NCI-H441 cells ([3H]thymidine), FIG. 14A (%)

[
  {
    "binder": "murine 224G11 Mab (antibody, V domains shown) VH: EVQLQQSGPELVKPGASVKISCKTSGYIFTAYTMHWVRQSLGESLDWIGGIKPNNGLANYNQKFKGKATLTVDKSSSTAYMDLRSLTSEDSAVYYCARSEITTEFDYWGQGTALTVSS VL: DIVLTQSPASLAVSLGQRATISCRASESVDSYANSFMHWYQQKPGQPPKLLIYRASNLESGIPARFSGSGSRTDFTLTINPVEADDVATYYCQQSKEDPLTFGSGTKLEMKR",
    "result units": "%",
    "result": 66
  },
  {
    "binder": "[224G11]chim (antibody, human IgG1, V domains shown) VH: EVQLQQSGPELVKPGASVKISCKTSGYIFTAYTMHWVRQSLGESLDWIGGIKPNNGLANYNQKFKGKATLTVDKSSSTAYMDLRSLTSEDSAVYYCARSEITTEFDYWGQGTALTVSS VL: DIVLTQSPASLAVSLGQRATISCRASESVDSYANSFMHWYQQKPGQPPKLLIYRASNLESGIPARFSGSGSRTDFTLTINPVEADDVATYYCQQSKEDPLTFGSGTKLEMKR",
    "result units": "%",
    "result": 19
  }
]
